subject-of-test: UniProt:P07374
Sequence (P07374 whole entry, looked up): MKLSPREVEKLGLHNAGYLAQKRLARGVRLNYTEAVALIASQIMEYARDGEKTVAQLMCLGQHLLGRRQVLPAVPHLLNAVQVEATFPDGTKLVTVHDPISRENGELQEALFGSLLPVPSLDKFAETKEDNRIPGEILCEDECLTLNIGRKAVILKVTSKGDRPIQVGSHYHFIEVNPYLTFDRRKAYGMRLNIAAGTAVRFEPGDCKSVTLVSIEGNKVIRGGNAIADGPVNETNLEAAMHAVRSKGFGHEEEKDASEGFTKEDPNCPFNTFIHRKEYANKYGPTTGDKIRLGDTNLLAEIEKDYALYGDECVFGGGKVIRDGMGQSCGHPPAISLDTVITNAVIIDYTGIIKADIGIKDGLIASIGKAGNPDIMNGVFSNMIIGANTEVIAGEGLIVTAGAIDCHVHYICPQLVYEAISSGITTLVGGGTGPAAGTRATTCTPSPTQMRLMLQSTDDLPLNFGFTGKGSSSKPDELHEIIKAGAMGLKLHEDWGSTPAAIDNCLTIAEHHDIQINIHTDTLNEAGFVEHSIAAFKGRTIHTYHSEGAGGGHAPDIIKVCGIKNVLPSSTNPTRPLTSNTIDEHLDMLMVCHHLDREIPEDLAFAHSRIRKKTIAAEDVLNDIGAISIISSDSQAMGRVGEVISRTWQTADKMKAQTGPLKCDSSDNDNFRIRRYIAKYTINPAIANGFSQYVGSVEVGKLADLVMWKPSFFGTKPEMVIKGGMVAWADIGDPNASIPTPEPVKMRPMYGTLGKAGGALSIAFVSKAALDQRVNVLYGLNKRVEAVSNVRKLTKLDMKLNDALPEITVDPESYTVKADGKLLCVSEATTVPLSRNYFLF
reported-property: IC50 (nM)
// units = nM; emit number, no label

Request: Which measured IC50 belongs to NC(N)=S , tested on UniProt:P07374?
Response: 1330

====

subject-of-test: α-amylase
test-context: starch substrate; pH 6.8; 30 minutes at 50 °C; triplicate
Parameter IC50: see the listing below.

// below: answered molecules
Cc1nc(N)sc1C(=O)NC12CC3CC(CC(C3)C1)C2 [Compound 6a] : 118 µM
Cc1nc(Nc2ccc(NS(C)(=O)=O)c(Oc3ccccc3)c2)sc1C(=O)NC12CC3CC(CC(C3)C1)C2 [Compound 6h] : > 100 µM
Cc1nc(Nc2cccc(F)c2)sc1C(=O)NC12CC3CC(CC(C3)C1)C2 [Compound 6i] : > 100 µM
Cc1nc(Nc2cccc(Cl)c2)sc1C(=O)NC12CC3CC(CC(C3)C1)C2 [Compound 6f] : > 100 µM
COc1ccc(Nc2nc(C)c(C(=O)NC34CC5CC(CC(C5)C3)C4)s2)cc1 [Compound 6d] : 97.4 µM
COc1ccccc1Nc1nc(C)c(C(=O)NC23CC4CC(CC(C4)C2)C3)s1 [Compound 6e] : > 100 µM
Cc1nc(Nc2ccccc2Cl)sc1C(=O)NC12CC3CC(CC(C3)C1)C2 [Compound 6g] : > 100 µM
Cc1nc(Nc2ccc([N+](=O)[O-])cc2)sc1C(=O)NC12CC3CC(CC(C3)C1)C2 [Compound 6b] : > 100 µM
Cc1nc(NC23CC4CC(CC(C4)C2)C3)sc1C(=O)NC12CC3CC(CC(C3)C1)C2 [Compound 6j] : > 100 µM

Now let's try a different one.
Request: Which measured IC50 belongs to Cc1nc(Nc2ccc(Br)cc2)sc1C(=O)NC12CC3CC(CC(C3)C1)C2 [Compound 6c] , tested on α-amylase?
Response: > 100 µM
